// data source = paper PMC12405487

# tgt: furin (human) (UniProt P09958)
# testProtocol: enzyme inhibition kinetics (fluorogenic substrate); condition 2: 50 mM Mes/NaOH pH 6.0, 300 mM NaCl, 2 mM CaCl2, 0.2% Triton X-100, 25 °C; substrate Ac-RR(Tle)KR-AMC; triplicates
readoutKind: pKi
Note on pKi: it is the negative log10 of concentration, concentration in mol/L.

Lab book: pKi of PC1/3-prodomain combination mutant M10 (M5 with His72Leu) (domain or fragment) GKRQFVNEWAAEIPGGPEAASAIAEELGYDLLGQIGSLENHYLFKLKNHPRKSARSAFHITKRLSDDDRVIWAEQQYEKERSKR noted as 9.85
